- Tested on: Escherichia coli TOP10
- PROTOCOL: shrunken log2 fold change of peptide-encoding DNA abundance (4.5 h post-induction vs induction); higher = less antimicrobial activity (less host growth inhibition)
- CONDITIONS: time post-induction: 4.5 h; library: site-saturation at positions 5, 18, 19, 20
MEASURED PARAMETER: shrunken log2 fold change

Dear colleague, could you please provide shrunken log2 fold change for the sequences listed below?
1. RRIRDRPPRLPRPRPRPEHAPRP
2. RRIRQRPPRLPRPRPRPGSCPRP

1. 0.294
2. 0.192

Hey, can you go through the list below and give me shrunken log2 fold change for every item?
1. RRIRPRPPRLPRPRPRPPYIPRP
2. RRIRTRPPRLPRPRPRPGCGPRP

1. -0.251
2. 0.385

Could I get shrunken log2 fold change for every one of these entries?
1. RRIRARPPRLPRPRPRPTITPRP
2. RRIRGRPPRLPRPRPRPQPTPRP
3. RRIRPRPPRLPRPRPRPDNYPRP
4. RRIRVRPPRLPRPRPRPFMFPRP
5. RRIRMRPPRLPRPRPRPMTHPRP

1: 0.187; 2: 1.02; 3: -0.496; 4: -0.433; 5: 0.173

----------
- Tested on: Escherichia coli TOP10
- PROTOCOL: shrunken log2 fold change of peptide-encoding DNA abundance (4.5 h post-induction vs induction); higher = less antimicrobial activity (less host growth inhibition)
- CONDITIONS: time post-induction: 4.5 h; library: site-saturation at positions 5, 18, 19, 20
# if value of shrunken log2 fold change reaches -0.0002, tag TRUE; if it stays below, tag FALSE

MONOMER SEQUENCE: RRIRTRPPRLPRPRPRPHSSPRP
SYSTEM UNDER TEST: Escherichia coli TOP10
CAT: FALSE

MONOMER SEQUENCE: RRIRWRPPRLPRPRPRPRLYPRP
SYSTEM UNDER TEST: Escherichia coli TOP10
CAT: TRUE

MONOMER SEQUENCE: RRIRCRPPRLPRPRPRPKDQPRP
SYSTEM UNDER TEST: Escherichia coli TOP10
CAT: FALSE

MONOMER SEQUENCE: RRIRCRPPRLPRPRPRPELHPRP
SYSTEM UNDER TEST: Escherichia coli TOP10
CAT: TRUE

MONOMER SEQUENCE: RRIRLRPPRLPRPRPRPVDLPRP
SYSTEM UNDER TEST: Escherichia coli TOP10
CAT: FALSE

MONOMER SEQUENCE: RRIRIRPPRLPRPRPRPDCQPRP
SYSTEM UNDER TEST: Escherichia coli TOP10
CAT: TRUE

MONOMER SEQUENCE: RRIRNRPPRLPRPRPRPMVFPRP
SYSTEM UNDER TEST: Escherichia coli TOP10
CAT: TRUE

MONOMER SEQUENCE: RRIRNRPPRLPRPRPRPCQDPRP
SYSTEM UNDER TEST: Escherichia coli TOP10;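 also: peptides expressed intracellularly from a pBAD plasmid library in pooled LB shake-flask culture, induced with 0.3% L-arabinose, DNA abundance read by NGS, three biological replicates, DESeq2 with apeglm shrinkage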
CAT: FALSE

State whether the measured shrunken log2 fold change reaches -0.0002, counting equality as reaching it, for RRIRPRPPRLPRPRPRPNDMPRP
FALSE

Confirm if shrunken log2 fold change reported for the sequence RRIRVRPPRLPRPRPRPRHTPRP is -0.0002 or above.
TRUE

Textbook exercise: given the entry RRIRMRPPRLPRPRPRPHIFPRP , state whether its shrunken log2 fold change is greater than or equal to -0.0002.
FALSE
